# tested.target: CA IX (Homo sapiens, UniProt Q16790)
# Construct: endogenous in cells; host or cells: HT29 cells under hypoxia (1.3% O2)
# measurement.protocol: CA IX competitive binding assay (pH 6.8 vs. 7.4 buffers + Zn2+)
# cond: HT29 cells, 2 nM 125I-EC2674, 2 hr, 37° C., 1.3% O2, pH 7.4 buffer (20 mM Tris, 140 mM NaCl, 1 mM ZnSO4)
measured.quantity: IC50 (nM)
Form entry: value (nM) — number only.

[in] Form field: reported IC50 of NS(=O)(=O)c1ccc(NC(=O)CN(CCN(CC(=O)Nc2ccc(S(N)(=O)=O)cc2)CC(=O)N[C@@H](CNC(=O)CCc2cc(I)c(O)c(I)c2)C(=O)O)CC(=O)O)cc1
[out] 66.5
